test system: OCI-AML2; experiment: cell viability relative to vehicle control; higher = less cytotoxic; details: 10 µM; SRSF2 genotype: P95H/wt;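 also: after 48 h exposure read by CellTiter-Glo luminescence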
# if measured cell viability < 30%: MET  # else: NOT MET

Compound	Label value
O=C(N/N=C/c1ccc(O)c(O)c1)c1cc2ccccc2cc1O [Dynasore]	NOT MET

Lab note: confirm whether the reported cell viability for this compound is below 30%, equality not counting. compound: Cc1cnc(Nc2ccc(OCCN3CCCC3)cc2)nc1Nc1cccc(S(=O)(=O)NC(C)(C)C)c1 MET

In plain terms, does COc1ccc(-c2ccc3cc(C(=O)O)ccc3c2)cc1C12CC3CC(CC(C3)C1)C2 [Adapalene] come in under 30% for cell viability? NOT MET

For O=c1[nH]cc(F)c(=O)[nH]1 [Adrucil (Fluorouracil)] , is the recorded cell viability below the cut-off of 30%? NOT MET

Please indicate whether the reported cell viability of Cc1ccc(Nc2cc(N[C@@H]3CCCC[C@@H]3N)nnc2C(N)=O)nc1C is strictly below 30%. MET

Lab note: confirm whether the reported cell viability for this compound is below 30%, equality not counting. compound: O=C1O[C@H]2[C@@H]3OC(=O)c4cc(O)c(O)c(O)c4-c4c(cc(O)c(O)c4O)C(=O)OC[C@H]2O[C@@H](OC(=O)c2cc(O)c(O)c(O)c2)[C@@H]3OC(=O)c2cc(O)c(O)c3c2[C@@H]2C1=CC(=O)[C@](O)(O3)C2(O)O [Geraniin] NOT MET

Lab log: compare recorded cell viability with 30%; is it strictly lower for CC1(C)S[C@@H]2[C@H](NC(=O)[C@H](C(=O)O)c3ccsc3)C(=O)N2[C@H]1C(=O)O [Ticarcillin sodium] ? NOT MET

----------
test system: MOLM14; test: cell viability relative to vehicle control; higher = less cytotoxic; settings: 10 µM; SRSF2 genotype: SRSF2 P95H/wt
Quantity name: cell viability (%)
Provide only the numeric value, understood in %.

Some compounds with recorded cell viability:
> print(dat)
                                   compound  data.value
1  C[N+]12CCc3cc4c(cc3C1(O)Cc1ccc3c(c1C2)OCO3)OCO4 (stereo unspecified) [Hydroprotopine]        91.2
2  CCOC(=O)C1=C(C)NC(C)=C(C(=O)OCC)C1c1ccccc1/C=C/C(=O)OC(C)(C)C [Lacidipine (Lacipil, Motens)]        49.7
3  CNc1ccc([N+](=O)[O-])c(Nc2ccc3[nH]ncc3c2)n1        18.1

Please find the next compound below.
Notebook: Cn1c(=O)cc(N2CCC[C@@H](N)C2)n(Cc2ccccc2C#N)c1=O , cell viability read as 91.3

----------
The reader will find reported cell viability values listed item by item below.
test system: MARIMO; assay: cell viability relative to vehicle control; higher = less cytotoxic; details: 10 µM; SRSF2 genotype: SRSF2 P95H/wt
Counter-ions that a name gives are not always drawn.
Numeric answer only, unit % assumed.

Molecule	Data value
CCCCCCCCCCCCN1CCCCCC1=O	80.5
C=CC(=O)Nc1cccc(Nc2nc(Nc3ccc(Oc4ccnc(C(=O)NC)c4)cc3)ncc2F)c1	83.4
OC[C@H]1O[C@@](CO)(O[C@H]2O[C@H](CO)[C@@H](O)[C@H](O)[C@H]2O)[C@@H](O[C@H]2O[C@H](CO)[C@@H](O)[C@H](O)[C@H]2O)[C@@H]1O [D-(+)-Melezitose]	105
CC(C)(C(=O)O)c1ccc(C(O)CCCN2CCC(C(O)(c3ccccc3)c3ccccc3)CC2)cc1 (configuration not stated) [Fexofenadine HCl]	95.9
C[C@H](NC(=O)CCC(F)(F)F)C(=O)N[C@@H]1C(=O)N(CCO)c2ncccc2-c2ccccc21	97.4
O=C1Nc2ccc(I)cc2C1=Cc1cc(Br)c(O)c(Br)c1	89.9

# molecule CC(=O)O[C@H]1C[C@@]2(C)[C@@H](C[C@@H](O)[C@H]3[C@@]4(C)CC[C@@H](O)[C@@H](C)[C@@H]4CC[C@@]32C)/C1=C(\CCC=C(C)C)C(=O)O [Fusidate Sodium] ; its cell viability = 102

----------
test system: MARIMO; experiment: cell viability relative to vehicle control; higher = less cytotoxic; settings: 10 µM; SRSF2 genotype: SRSF2 wt/wt
Each entry below carries its reported cell viability.
Use % as the unit, but write only the number.

For this compound ( CO[C@H]1/C=C/O[C@@]2(C)Oc3c(C)c(O)c4c(O)c(c5c(nc6cc(C)ccn65)c4c3C2=O)NC(=O)/C(C)=C\C=C\[C@H](C)[C@H](O)[C@@H](C)[C@@H](O)[C@@H](C)[C@H](OC(C)=O)[C@@H]1C [Rifaximin (Xifaxan)] ), measured cell viability is 107

----------
system: OCI-AML2; assay: cell viability relative to vehicle control; higher = less cytotoxic; conditions: 10 µM; SRSF2 genotype: P95H/wt
Recorded cell viability by entry
Give the value, in units of %, as a plain number.

Examples with their reported cell viability follow.
Molecule	cell viability, %
CC(C)=CCC[C@](C)(O[C@@H]1O[C@H](CO)[C@@H](O)[C@H](O)[C@H]1O)[C@H]1CC[C@]2(C)[C@@H]1[C@H](O)C[C@@H]1[C@@]3(C)CC[C@H](O)C(C)(C)[C@@H]3[C@@H](O[C@@H]3O[C@H](CO)[C@@H](O)[C@H](O)[C@H]3O[C@@H]3O[C@@H](C)[C@H](O)[C@@H](O)[C@H]3O)C[C@]12C [Ginsenoside Re]	97.4
CC(C)c1nc(N(C)S(C)(=O)=O)nc(-c2ccc(F)cc2)c1/C=C/[C@@H](O)C[C@@H](O)CC(=O)O	105
CCCCCCNC(=O)Nc1ccc(S(=O)(=O)Nc2ccc(CCNC[C@H](O)COc3ccc(O)cc3)cc2)cc1	74.2

// sample COc1cc(CCc2cc(NC(=O)c3ccc(N4CC(C)NC(C)C4)cc3)n[nH]2)cc(OC)c1 (stereo unspecified) , its cell viability was 8.06

Entry CCN(CC)C(=S)SSC(=S)N(CC)CC ; cell viability = 14

Notebook: C=CC(=O)Nc1cc2c(Nc3ccc(F)c(Cl)c3)ncnc2cc1OCCCN1CCOCC1 , cell viability read as 27.6

----------
system: MARIMO; assay: cell viability relative to vehicle control; higher = less cytotoxic; details: 10 µM; SRSF2 genotype: SRSF2 P95H/wt
Quantity name: cell viability
Answer by giving the amount and then stating its unit.

Answered cases to consult:
Compound	Data value
O=C(O)[C@H]1O[C@@H](Oc2cc3oc(-c4ccccc4)cc(=O)c3c(O)c2O)[C@H](O)[C@@H](O)[C@@H]1O	101%
CC(=O)c1cc([N+](=O)[O-])c(Sc2ccc(F)cc2F)s1	57.1%
Cc1ncc(COP(=O)(O)O)c(C=O)c1O [Pyridoxal phosphate]	100%
Cc1ccccc1C(C(=O)NC1CCCCC1)N(C(=O)Cn1ccnc1C)c1cccc(F)c1 (stereo not drawn)	99.2%
c1ccc2occc2c1	93.7%
O=C(CCCCCCC(=O)N/N=C/c1ccc(N(c2ccccc2)c2ccccc2)cc1)NO	65.8%
O=C(Nc1ccccc1-c1cn2c(CN3CC[C@@H](O)C3)csc2n1)c1ccc2ccccc2c1	57.1%
CC/C(=C(/c1ccc(/C=C/C(=O)O)cc1)c1ccc2[nH]ncc2c1)c1ccc(F)cc1Cl	102%
CC(=O)OCC1=C(C(=O)O)N2C(=O)[C@@H](NC(=O)Cc3cccs3)[C@H]2SC1	95.8%
N[C@@H](C(=O)N[C@@H]1C(=O)N2C(C(=O)O)=C(Cl)CS[C@H]12)c1ccccc1	104%

Recorded cell viability (compound O=C(Nc1cccc(Cl)c1)c1ccccn1 ): 98.5%

Documented cell viability of COC(=O)N1CCN(Cc2cccc(NC(=O)Nc3ccc(C)nc3)c2F)CC1 : 91.9%

Reported cell viability ( CCCNC(=O)c1cn2ncnc(Nc3cc(C(=O)NC4CC4)ccc3C)c2c1C ) = 99.5%

----------
system: MARIMO; test: cell viability relative to vehicle control; higher = less cytotoxic; conditions: 10 µM; SRSF2 genotype: SRSF2 wt/wt
Structures can show the parent of a compound that is named as a salt.
The threshold is 70%. Values of cell viability beneath it are tagged MET; values meeting or exceeding it are tagged NOT MET.

See these solved cases before continuing.
Molecule	Target system	Label value
Cc1c(F)cc(C(=O)NC2CC2)cc1-c1ccc(C(=O)NCC(C)(C)C)cn1 [Losmapimod]	MARIMO	NOT MET
Nc1ncn([C@H]2C[C@H](O)[C@@H](CO)O2)c(=O)n1 [Decitabine]	MARIMO	NOT MET
COC1=C2C[C@@H](C)C[C@H](OC)[C@H](O)[C@@H](C)/C=C(\C)[C@H](OC(N)=O)[C@@H](OC)/C=C\C=C(/C)C(=O)NC(=CC1=O)C2=O [Geldanamycin]	MARIMO	MET
CC(C)(O)CC[C@@H](O)[C@](C)(O)[C@H]1CC[C@@]2(O)C3=CC(=O)[C@@H]4C[C@@H](O)[C@@H](O)C[C@]4(C)[C@H]3CC[C@]12C [20-Hydroxyecdysone]	MARIMO	NOT MET

Strictly below 70% in cell viability? NCCc1ccc(O)c(O)c1 [Dopamine hydrochloride (Inotropin)] NOT MET

In the record for CC(=O)O[C@H]1C(=O)[C@@]2(C)[C@H]([C@H](OC(=O)c3ccccc3)[C@]3(O)C[C@H](OC(=O)[C@H](O)[C@@H](NC(=O)c4ccccc4)c4ccccc4)C(C)=C1C3(C)C)[C@]1(OC(C)=O)CO[C@@H]1C[C@@H]2O [Paclitaxel (Taxol)] , is cell viability less than 70%? MET

# check: cell viability < 70% for CN(C)C/C=C/C(=O)Nc1ccc(C(=O)Nc2cccc(Nc3ncc(Cl)c(-c4c[nH]c5ccccc45)n3)c2)cc1 MET
